binders and their reported ADCC EC50, Ramos target cells, human NK effector cells, LDH release
biological target: human CD38 on cells (human, UniProt P28907 1-300); assay: cell-based or functional assay
Kindly answer with a numeric value in ng/mL, unit omitted.

INSERT INTO results (binder, datavalue) VALUES
  ('ch38SB19 chimeric anti-CD38 antibody (antibody, V domains shown, also called chimeric 38SB19) VH: QVQLQQSGAELARPGTSVKLSCKASGYTFTDYWMQWVKQRPGQGLEWIGTIYPGDGDTGYAQKFKGKATLTADKSSKTVYMHLSSLASEDSAVYYCARGDYYGSNSLDYWGQGTSVTVSS VL: DIVMAQSHKFMSTSVGDRVSITCKASQDVSTVVAWYQQKPGQSPKRLIYSASYRYIGVPDRFTGSGSGTDFTFTISSVQAEDLAVYYCQQHYSPPYTFGGGTKLEIKR', 1.8);

Given the binder ch38SB18 chimeric anti-CD38 antibody (antibody, V domains shown) VH: QIQLVQSGPELKKPGETVKISCKASGYTFTNSGMNWVKQAPGKGLKWMGWINTYTGEPTYADDFKGRFAFSLETSASSAYLQISNLKNEDTATYFCARRGFVYWGQGTLVTVSA VL: DIVLTQSPASLAVSLGQRATISCRASESVAIYGNSFLKWFQQKPGQPPKLLIYRASNLESGIPARFSGSGSGTDFTLTINPVEADDVATYYCQQINEDPYTFGGGTKLEIKR , what is its reported ADCC EC50, Ramos target cells, human NK effector cells, LDH release? 1.3
